assay: DSSTox (CPDBAS) Carcinogenic Potency Database Summary SingleCellCall Results; details: animal chronic carcinogenicity bioassays, CPDB summary call
Activity calls are given as the source filed them.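 How the source made its calls: active means a tumor-causing dose value with its tumor site reported for any sex and species group of a rodent or other animal cancer study; inconclusive means only studies judged inadequate by the national testing program; inactive means tested in at least one study, none positive.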
Outcomes: active, inactive

[
  {
    "MOLECULE": "CCCCNNCCCC",
    "LABEL": "active"
  },
  {
    "MOLECULE": "C=CBr",
    "LABEL": "active"
  },
  {
    "MOLECULE": "C=CCOCC1CO1 (stereo not given)",
    "LABEL": "active"
  },
  {
    "MOLECULE": "ClC1=C(Cl)[C@]2(Cl)[C@@H]3[C@H]4C[C@H]([C@@H]5O[C@H]45)[C@@H]3[C@@]1(Cl)C2(Cl)Cl",
    "LABEL": "inactive"
  },
  {
    "MOLECULE": "CCOP(=O)(CC1CO1)OCC (stereo not given)",
    "LABEL": "inactive"
  },
  {
    "MOLECULE": "c1ccc2[nH]ccc2c1",
    "LABEL": "inactive"
  },
  {
    "MOLECULE": "c1ccc2c(c1)ccc1cc3c(ccc4ccccc43)cc12",
    "LABEL": "active"
  },
  {
    "MOLECULE": "O=[As](O)(O)O",
    "LABEL": "inactive"
  },
  {
    "MOLECULE": "Cc1c([N+](=O)[O-])c(C)c([N+](=O)[O-])c(C(C)(C)C)c1[N+](=O)[O-]",
    "LABEL": "active"
  },
  {
    "MOLECULE": "S=c1[nH]c2ccccc2s1",
    "LABEL": "active"
  },
  {
    "MOLECULE": "O=NN1CCCC1c1ccc[n+]([O-])c1 (stereo not given)",
    "LABEL": "active"
  },
  {
    "MOLECULE": "NC(=S)NNC(N)=S",
    "LABEL": "inactive"
  },
  {
    "MOLECULE": "C=CC=C",
    "LABEL": "active"
  },
  {
    "MOLECULE": "ClCCOCCCl",
    "LABEL": "active"
  },
  {
    "MOLECULE": "C1CCNCC1",
    "LABEL": "inactive"
  }
]

* * *

test: DSSTox (CPDBAS) Carcinogenic Potency Database Summary SingleCellCall Results; settings: animal chronic carcinogenicity bioassays, CPDB summary call
Calls of active or inactive are those of the source.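 How the source made its calls: active means a tumor-causing dose value with its tumor site reported for any sex and species group of a rodent or other animal cancer study; inconclusive means only studies judged inadequate by the national testing program; inactive means tested in at least one study, none positive.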

[
  {
    "COMPOUND": "NC(Cc1c[nH]c2ccccc12)C(=O)O (stereo unspecified)",
    "outcome": "inactive"
  },
  {
    "COMPOUND": "O=S(=O)(O)c1cc(S(=O)(=O)O)c2c(N=Nc3ccccc3)c(O)ccc2c1",
    "outcome": "inactive"
  },
  {
    "COMPOUND": "O=NN(CCCl)C(=O)N[C@@H]1[C@@H](O)[C@H](O)[C@@H](CO)O[C@@H]1O",
    "outcome": "active"
  },
  {
    "COMPOUND": "O=CCBr",
    "outcome": "inactive; active"
  },
  {
    "COMPOUND": "OCCOCCO",
    "outcome": "active"
  },
  {
    "COMPOUND": "COc1cc(/C=C/C(=O)OCCc2ccccc2)ccc1O",
    "outcome": "inactive; active"
  },
  {
    "COMPOUND": "CC(=O)Nc1nnc(-c2ccc([N+](=O)[O-])o2)s1",
    "outcome": "active"
  },
  {
    "COMPOUND": "ClC1=C(Cl)[C@]2(Cl)[C@@H]3[C@@H]4C[C@@H]([C@H]5O[C@@H]45)[C@@H]3[C@@]1(Cl)C2(Cl)Cl",
    "outcome": "active"
  },
  {
    "COMPOUND": "Cn1nc(CO)nc1NCCCOc1cccc(CN2CCCCC2)c1",
    "outcome": "active"
  },
  {
    "COMPOUND": "CC1CC(C)(C)CC(OOC(C)(C)C)(OOC(C)(C)C)C1 (stereo unspecified)",
    "outcome": "inactive; active"
  }
]
